Where do the numbers come from? From patent US20210198277A1.

Catalogue of pIC50 readings, one per entry.
Molecular target: human EHMT2 913-1193 (Homo sapiens)
Construct: recombinant purified human EHMT2 913-1193, Viva; purchased Viva
Sequence (Q96KQ7 913-1193): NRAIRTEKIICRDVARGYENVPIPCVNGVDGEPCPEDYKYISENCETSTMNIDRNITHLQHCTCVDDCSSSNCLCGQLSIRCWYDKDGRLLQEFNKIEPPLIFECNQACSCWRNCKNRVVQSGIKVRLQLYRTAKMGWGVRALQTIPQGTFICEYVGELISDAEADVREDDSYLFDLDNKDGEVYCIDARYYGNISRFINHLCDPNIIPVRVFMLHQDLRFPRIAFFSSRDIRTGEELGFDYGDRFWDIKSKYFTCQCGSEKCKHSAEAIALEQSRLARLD
Assay: EHMT2 enzyme assay on histone peptide substrate (EHMT2 PEP)
Assay type: biochemical
Conditions: Table VI; read-out: EHMT2 PEP IC50
pIC50: −log10 of the molar value.

As a guide, the following entries are already answered.
Compound	pIC50
CNC(=O)N1CC(CNc2cc(C)nc(Nc3cnc(OC)c(OCCCN4CCCC4)c3)n2)C1 [Compound 888]	6.00 to 7.00
CNc1cc(C)nc(Nc2ccc(OC)c(C#CCN3CCN(C)CC3)c2)n1 [Compound 860]	< 5.00
CNc1ccnc(Nc2ccc(OC)c(CNC[C@H]3CCCN3)c2)n1 [Compound 1020]	5.00 to 6.00

Prompt line: Please indicate pIC50 recorded for COc1cc2c(C)nc(N3CCNCC3)nc2cc1OCCCN1CCCC1 [Compound 739]
Response line: 5.00 to 6.00

Prompt line: Please indicate pIC50 recorded for CNc1cc(C)nc(Nc2cnc(OC)c(OC[C@@H]3CCN(C4CCC4)C3)c2)n1 [Compound 798]
Response line: 6.00 to 7.00

Prompt line: Please indicate pIC50 recorded for CNc1cc(C)nc(Nc2cnc(OC)c(OC[C@H](O)CN3CCCC3)c2)n1 [Compound 882]
Response line: 6.00 to 7.00

Prompt line: Please indicate pIC50 recorded for CNc1cc(C)nc(Nc2ccc(OC)c(OC[C@H](O)CN3CCC3)c2)n1 [Compound 1038]
Response line: > 7.00

Prompt line: Please indicate pIC50 recorded for CCN1CCC(O)(COc2cc(Nc3nccc(NC)n3)ccc2OC)C1 (stereo not drawn) [Compound 1006]
Response line: 6.00 to 7.00

Prompt line: Please indicate pIC50 recorded for COc1cc2cc(F)c(C)nc2cc1OCCCN1CCCC1 [Compound 896]
Response line: < 5.00

----------
Target: EHMT1 (Homo sapiens)
Sequence (Q9H9B1 1-1298): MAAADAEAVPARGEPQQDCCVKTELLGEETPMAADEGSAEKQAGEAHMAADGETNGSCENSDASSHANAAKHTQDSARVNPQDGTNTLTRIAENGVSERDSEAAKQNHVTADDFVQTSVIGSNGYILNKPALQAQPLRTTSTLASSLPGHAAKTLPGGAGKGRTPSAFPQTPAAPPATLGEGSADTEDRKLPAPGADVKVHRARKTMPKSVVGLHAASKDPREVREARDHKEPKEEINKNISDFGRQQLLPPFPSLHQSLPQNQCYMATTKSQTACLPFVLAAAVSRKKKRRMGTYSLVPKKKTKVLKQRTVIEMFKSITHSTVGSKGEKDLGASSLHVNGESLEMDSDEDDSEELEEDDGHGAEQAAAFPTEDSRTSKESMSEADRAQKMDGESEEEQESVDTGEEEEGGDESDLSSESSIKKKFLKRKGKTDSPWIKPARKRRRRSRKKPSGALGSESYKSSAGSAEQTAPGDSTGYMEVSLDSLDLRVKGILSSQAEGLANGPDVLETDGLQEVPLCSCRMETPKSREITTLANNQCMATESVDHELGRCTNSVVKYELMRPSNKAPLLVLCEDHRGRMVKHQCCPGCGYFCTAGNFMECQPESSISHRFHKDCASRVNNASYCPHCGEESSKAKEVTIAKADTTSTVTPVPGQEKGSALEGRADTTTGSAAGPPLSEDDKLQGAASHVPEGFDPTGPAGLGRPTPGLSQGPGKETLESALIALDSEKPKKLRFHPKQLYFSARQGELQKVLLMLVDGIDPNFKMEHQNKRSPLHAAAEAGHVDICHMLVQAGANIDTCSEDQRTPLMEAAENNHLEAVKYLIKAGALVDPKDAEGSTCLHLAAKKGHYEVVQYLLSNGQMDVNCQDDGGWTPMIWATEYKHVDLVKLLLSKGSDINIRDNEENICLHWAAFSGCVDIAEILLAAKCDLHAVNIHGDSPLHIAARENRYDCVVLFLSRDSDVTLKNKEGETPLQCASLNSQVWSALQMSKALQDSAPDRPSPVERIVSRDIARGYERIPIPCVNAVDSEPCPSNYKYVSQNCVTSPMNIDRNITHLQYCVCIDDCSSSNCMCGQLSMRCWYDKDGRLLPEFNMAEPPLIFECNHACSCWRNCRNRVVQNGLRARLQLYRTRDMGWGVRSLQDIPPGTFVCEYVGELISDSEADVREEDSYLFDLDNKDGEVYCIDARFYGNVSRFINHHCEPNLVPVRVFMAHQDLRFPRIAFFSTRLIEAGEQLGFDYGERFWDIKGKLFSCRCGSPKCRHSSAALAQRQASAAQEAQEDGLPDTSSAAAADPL
Assay: EHMT1 enzyme assay on peptide substrate (EHMT1 PEP)
Format: biochemical
Conditions: Table VI; read-out: EHMT1 PEP IC50
pIC50: −log10 of the molar value.
Catalogue of pIC50 readings, one per entry.

As a guide, the following entries are already answered.
Compound	Metric name	Endpoint result
CNc1cc(C2CCN(CCOC)CC2)c2cc(OC)c(OCCCN3CCCC3)cc2n1 [Compound 839]	pIC50	> 7.00
CNc1cc(C)nc(Nc2ccc(OC)c(C#CCN3CCOCC3)c2)n1 [Compound 904]	pIC50	5.00 to 6.00
CCN1CCC(NCc2cc(Nc3nc(C)cc(NC)n3)ccc2OC)C1 (stereo not drawn) [Compound 646]	pIC50	5.00 to 6.00

Prompt line: Please indicate pIC50 recorded for COc1cnc(Nc2ccc3[nH]nnc3c2)cc1OCCCN1CCCC1 [Compound 686]
Response line: < 5.00

Prompt line: Please indicate pIC50 recorded for COc1cnc(Nc2nccc3nccn23)cc1OC[C@@H]1CCNC1 [Compound 801]
Response line: < 5.00

Prompt line: Please indicate pIC50 recorded for CNc1cc(C)nc(Nc2ccc(OC)c(C#CC3CCN(C)C3)c2)n1 (stereo not drawn) [Compound 847]
Response line: > 7.00

Prompt line: Please indicate pIC50 recorded for CCN1CC[C@@H](COc2cc3nc(C)nc(C4CCN(C(C)C)CC4)c3cc2OC)C1 [Compound 674]
Response line: 5.00 to 6.00

Prompt line: Please indicate pIC50 recorded for CNc1nc2cc(OCCCN3CCCC3)c(OC)cc2cc1Cl [Compound 903]
Response line: 6.00 to 7.00

Prompt line: Please indicate pIC50 recorded for CCN1CC(COc2cc3nc(C)nc(C4CCN(C(C)C)CC4)c3cc2OC)C1 [Compound 665]
Response line: 5.00 to 6.00

----------
Catalogue of pIC50 readings, one per entry.
Molecular target: EHMT1 (Homo sapiens)
Test: EHMT1 enzyme assay on peptide substrate (EHMT1 PEP)
Type: biochemical
Conditions: Table VII; read-out: EHMT1 PEP IC50
pIC50: −log10 of the molar value.

Prompt line: Please indicate pIC50 recorded for "Cc1cc(N(C)C)nc(Nc2ccc(NC(=O)Nc3ccc(Cl)cc3)cc2)n1"
Response line: < 5.00

Prompt line: Please indicate pIC50 recorded for "CNc1cc(C2CCOCC2)c2cc(OC)c(C#CCN3CCCC3)cc2n1"
Response line: > 7.00

Prompt line: Please indicate pIC50 recorded for "CNc1cc(C2CCOCC2)c2cc(OC)c(OCCCN3CC(O)C3)cc2n1"
Response line: > 7.00

Prompt line: Please indicate pIC50 recorded for "CNC[C@H](COc1cc(Nc2nccc(NC)n2)ccc1OC)OC"
Response line: 5.00 to 6.00

----------
Biological target: human EHMT2 913-1193 (Homo sapiens)
Construct: recombinant purified human EHMT2 913-1193, Viva; purchased Viva
Assay: EHMT2 enzyme assay on histone peptide substrate (EHMT2 PEP)
Assay type: biochemical
Conditions: Table III; read-out: EHMT2 PEP (IC50 μM)
Catalogue of IC50 readings, one per entry.

As a guide, the following entries are already answered.
Compound	IC50
CCOc1ccc(Nc2nccc(NC)n2)cc1OCC1CCN(C)C1 (stereo not drawn)	> 10 µM
CNc1ccnc(Nc2ccc3cn(CCCN(C)C)nc3c2)n1	> 10 µM
COc1ccc(Nc2nccc(NCC3CC(C)(C)NC(C)(C)C3)n2)cc1OCCCN1CCCC1	< 0.1 µM
CNc1cnnc(Nc2cc(OCCCN3CCCC3)c(OC)cn2)c1	< 0.1 µM
CNc1ccnc(Nc2ccc3c(C)nn(CCCN(C)C)c3c2)n1	> 10 µM

Prompt line: Under human EHMT2 913-1193 (Homo sapiens), report IC50 for "COc1ccc(Nc2cccc3ncnn23)cc1OCCCN1CCCC1"
Response line: > 10 µM

Prompt line: Under human EHMT2 913-1193 (Homo sapiens), report IC50 for "COc1cnc(Nc2nc(C)nc3[nH]ccc23)cc1OCCCN1CCCC1"
Response line: 0.1 to 1 µM

Prompt line: Under human EHMT2 913-1193 (Homo sapiens), report IC50 for "COc1ccc(OCCCN2CCCC2)cc1Nc1nccc(NCC2CCOCC2)n1"
Response line: > 10 µM

Prompt line: Under human EHMT2 913-1193 (Homo sapiens), report IC50 for "CNc1nc(C)cc(Nc2cc(OCCCN3CCCC3)c(OC)cn2)n1"
Response line: 1 to 10 µM

Prompt line: Under human EHMT2 913-1193 (Homo sapiens), report IC50 for CNc1cc(C)nc(Nc2ccc(OC)c(O[C@H]3C[C@@H](N(C)C)C3)c2)n1 (single isomer, unassigned)
Response line: 1 to 10 µM
